B1: Histone-lysine N-methyltransferase SETD2, residues 2382 to 2430; numbered along this chain, Q9BYW2 (parent)
chain: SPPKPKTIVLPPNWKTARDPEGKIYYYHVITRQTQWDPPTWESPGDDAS

Variants of: B1
ASSAY NOTES: abundance fitness (aPCA) (normalised: wild type 0, dead -1); higher = more abundant; growth selection in yeast, the domain comes from the species named
TEST CONTEXT: Homo sapiens
OBSERVED PROPERTY: abundance fitness

Observe how each entry below is paired with its result.
A48M : 0.151
G22S : -0.297
N13T : -0.123
Q35I : -0.505
E21M : -0.059
K15H : -0.153
P11D : -0.156
R18Q : -0.482
A48S : -0.027
T40S : 0.062

input: Give its abundance fitness value. Item: I24G
output: -0.578

input: Also check D46E
output: -0.117

input: Also check Y27P
output: -0.898

input: Also check E21R
output: -0.043

input: Also check R18F
output: -0.424

input: Also check K23R
output: 0.029

input: Also check A48C
output: 0.085
